Target: T1, 4H3606-bA
T1 chain: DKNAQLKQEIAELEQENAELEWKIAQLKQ
Test: two-hybrid library CCNG1;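 also: natural log of median RNA to DNA barcode read ratio; higher means stronger binding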
MEASURED_PARAMETER: interaction score
Give bare numbers.

Record excerpt, results attached:
BINDER	VALUE_REPORTED
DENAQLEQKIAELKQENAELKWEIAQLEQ [4H1369-bA]	2.35
DKNAQLEQEIAELKQKNAELEWKIAQLEQ [4H3189-bA]	-0.875
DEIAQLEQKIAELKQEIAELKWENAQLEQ [4H331-bA]	-0.929

Turning now to a further record.
Return reported interaction score; argument: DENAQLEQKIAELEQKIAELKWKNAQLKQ [4H1328-bA]
0.221
